Sourced from the supplement of paper PMC10065799

- assayTarget: Fes (UniProt P07332)
- Sequence (P07332 whole entry, looked up): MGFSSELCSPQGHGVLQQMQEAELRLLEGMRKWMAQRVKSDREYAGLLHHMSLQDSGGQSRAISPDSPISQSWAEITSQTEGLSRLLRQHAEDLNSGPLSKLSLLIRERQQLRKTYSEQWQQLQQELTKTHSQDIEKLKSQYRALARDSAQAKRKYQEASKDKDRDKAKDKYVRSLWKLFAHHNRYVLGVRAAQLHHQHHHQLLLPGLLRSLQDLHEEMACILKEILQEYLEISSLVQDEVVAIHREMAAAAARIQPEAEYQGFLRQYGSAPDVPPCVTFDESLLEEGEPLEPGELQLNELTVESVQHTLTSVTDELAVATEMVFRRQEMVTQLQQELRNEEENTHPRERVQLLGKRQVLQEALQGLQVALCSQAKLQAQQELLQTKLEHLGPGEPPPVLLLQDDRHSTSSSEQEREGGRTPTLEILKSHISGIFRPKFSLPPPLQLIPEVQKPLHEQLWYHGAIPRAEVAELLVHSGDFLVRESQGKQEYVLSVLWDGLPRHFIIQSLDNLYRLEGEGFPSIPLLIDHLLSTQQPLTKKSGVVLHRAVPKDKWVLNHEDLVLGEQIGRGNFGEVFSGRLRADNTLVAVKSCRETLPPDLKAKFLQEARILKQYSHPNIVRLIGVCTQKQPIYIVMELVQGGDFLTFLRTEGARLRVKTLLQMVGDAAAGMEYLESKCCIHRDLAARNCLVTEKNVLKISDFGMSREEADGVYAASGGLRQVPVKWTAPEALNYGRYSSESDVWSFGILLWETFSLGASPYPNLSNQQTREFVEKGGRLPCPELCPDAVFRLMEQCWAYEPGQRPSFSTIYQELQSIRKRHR
- procedureSummary: phosphorylation enrichment, bacterial display (enrichment ratio); higher = better substrate or ligand; peptides without Tyr show the background;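 further: 11-residue human phosphosite peptides and single-mutation variants displayed on the E. coli surface, counted by deep sequencing, each peptide's frequency after selection divided by its frequency in the unselected input library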;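 further: frequency after pTyr selection over input frequency; kinase dosed for 20-30% of maximal phosphorylation in three min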
// reported phosphorylation enrichment per item
Please respond with just the number, no unit label.

sequence: DRLASYRDKVR [KRT12_Y139_L140R]
testResult: 0.447

sequence: EQLLDYTRTVQ [INPP5E_Y439_R435Q]
testResult: 0.815

sequence: RQNRFYDAKVR [FKBP6_Y188]
testResult: 0.715

sequence: PLKYLYPNIDK [STAT1_Y668]
testResult: 0.896

sequence: LITLVYGCSRQ [TMPRSS6_Y290_S288L]
testResult: 1.74

sequence: EKKDLYKAGEQ [CFH_Y1008_V1007L]
testResult: 0.799

q: Suppose we examine the sequence FRAVKYLQMVG [AVPR2_Y117_C112Y_YF] ; what phosphorylation enrichment value has been reported?
a: 1.26

q: Input NRKGKYFNVER [ANAPC4_Y469]
a: 0.575

q: Query GVTLLYFGRFN [ADGRD1_Y85_YF] next
a: 1.34

q: Consider next the sequence PLTRSYIREKV [CYP2C8_Y243_A238P] in the same way.
a: 0.413

q: Next sequence: HQNGMYRLHQD [SGSH_Y89_G90R]
a: 0.971

q: Likewise for CEHRGFLFLAI [TEK_Y897_Y897F_YF] ?
a: 1.16

q: Then GRRNTCYASIA [ACADM_Y352_Y352C] ?
a: 0.644

q: Same for SHISGYATLRR [RAPH1_Y1226]
a: 0.753

q: Follow-up entry: PFSEPYADFGG [APBA1_Y187_YF]
a: 1.29

q: Quick one: REETTYLPLTS [ICAM3_Y527_S525T]
a: 1.05

q: // query: EFHRLYEEFTR [PIK3R1_Y467_D464H_YF]
a: 0.941

q: VFAANYFKLLG [ROR2_Y645_D644N_YF] , same question.
a: 1.04
